B1: VH:VL chains; a variant is named by its letters at X, in order (parent)
chain 1: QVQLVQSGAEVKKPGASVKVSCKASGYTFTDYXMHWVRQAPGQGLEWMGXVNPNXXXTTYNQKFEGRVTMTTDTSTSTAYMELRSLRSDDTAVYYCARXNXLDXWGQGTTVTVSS
chain 2: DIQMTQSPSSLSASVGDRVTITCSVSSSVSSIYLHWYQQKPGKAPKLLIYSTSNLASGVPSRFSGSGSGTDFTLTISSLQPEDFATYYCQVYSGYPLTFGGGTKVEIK

variants of: B1; experiment: yeast display scFab, FACS + sequencing
quantityName: non-specific binding call

- mutantName: "VKGRAYGV"
  non-specific binding call: "no binding"
- mutantName: "YETETALY"
  non-specific binding call: "no binding"
- mutantName: "VRAGGDAV"
  non-specific binding call: "no binding"
- mutantName: "FRERGAVV"
  non-specific binding call: "binds"
- mutantName: "FKGKGFGA"
  non-specific binding call: "binds"
- mutantName: "YRGKGAWY"
  non-specific binding call: "binds"
- mutantName: "VTGGDDGA"
  non-specific binding call: "no binding"
- mutantName: "YRTADVGV"
  non-specific binding call: "binds"

Request: Annotate the variant SKRETAWS with its measured non-specific binding call.
Result: binds

Request: Give a short answer stating reported non-specific binding call for FRGRGSGV .
Result: binds

Request: Name the recorded non-specific binding call of the variant listed here: VRAGADVD
Result: no binding

Request: Give the measured non-specific binding call for DRGGDDAD
Result: no binding

Request: Entry VKAASAVY needs its non-specific binding call filled in; supply it.
Result: no binding

Request: Please look at this variant and report its non-specific binding call: FRGEGSVS
Result: binds

Request: For the variant YRRRGYLV , give its measured non-specific binding call value.
Result: binds

Request: Give non-specific binding call for the following variant: YKRRDSVD
Result: binds

Request: Report non-specific binding call for FKGRGAVY
Result: binds

Request: Item VAREDDWA : provide non-specific binding call
Result: no binding

Request: Fill in reported non-specific binding call for this entry: VGGTSDVA
Result: no binding

Request: Supply reported non-specific binding call belonging to this variant: DGTGGSGA chain 1 R67H
Result: no binding

Request: Provide one value: measured non-specific binding call of ATTKSDGV
Result: no binding

Request: Give non-specific binding call for FRARGAAY
Result: binds

Request: Provide only the value of recorded non-specific binding call for FKGRGDGS
Result: binds

Request: Give recorded non-specific binding call. SAGEGSLV
Result: no binding

Request: Recall and state the measured non-specific binding call for DARGGDWV .
Result: no binding

Request: Answer with reported non-specific binding call of VRRGDVGV
Result: binds

Request: Provide one value: measured non-specific binding call of DATGGAVA
Result: no binding

Request: Let me know recorded non-specific binding call for YGGGGVAA , thanks.
Result: binds
